Molecular target: Pteridine reductase 1 (Leishmania major) (UniProt Q01782)
Sequence (Q01782 whole entry): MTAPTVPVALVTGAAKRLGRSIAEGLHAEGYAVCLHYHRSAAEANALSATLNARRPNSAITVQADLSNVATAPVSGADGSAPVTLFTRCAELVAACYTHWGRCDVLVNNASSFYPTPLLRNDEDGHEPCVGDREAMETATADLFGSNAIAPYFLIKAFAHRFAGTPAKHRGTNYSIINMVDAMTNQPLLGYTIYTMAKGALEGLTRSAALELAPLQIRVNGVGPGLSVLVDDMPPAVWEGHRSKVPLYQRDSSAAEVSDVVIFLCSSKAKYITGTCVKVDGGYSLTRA
Assay: Inhibition of Leishmania major pteridine reductase 1 at 50 uM using di-hydrobiopterine as substrate in presence of NADPH relative to control
Active and inactive are the calls of the source. The calls are words filed in the database; no cut-off is given here.
Experimental endpoint: inhibition

• N#Cc1ccc(COc2ccc3nc(N)sc3c2)cc1 = > 60%
• COC(=O)C1CCN(C(=O)c2ccc(CNC(=O)c3ccc4nc(N)sc4c3)cc2)CC1 = 1.97%
• N#Cc1ccc(CNC(=O)c2ccc3nc(N)sc3c2)cc1 = > 60%
• Nc1nc2ccc(C(=O)NCCc3cccs3)cc2s1 = 18.3%
• COC(=O)c1ccc(COc2ccc3nc(N)sc3c2)cc1 = > 60%
• COC(=O)c1ccc(CNC(=O)c2ccc3nc(N)sc3c2)cc1 = > 60%
• Nc1nc2ccc(C(=O)NCc3ccccc3[N+](=O)[O-])cc2s1 = > 60%
• N#Cc1ccc(CSc2ccc3nc(N)sc3c2)cc1 = > 60%
• Nc1nc2c(C(=O)NCc3ccc(Cl)c(Cl)c3)cc(O)c(O)c2s1 = > 60%
• Nc1nc2ccc(C(=O)NCCc3c[nH]c4ccccc34)cc2s1 = inactive
• Nc1nc2ccc(C(=O)N(CCO)Cc3ccccc3)cc2s1 = 24.1%
• Nc1nc2ccc(C(=O)NCc3ccccc3)cc2s1 = > 60%
• Nc1nc2ccc(C(=O)NCc3ccc(C(=O)NCc4ccccc4)cc3)cc2s1 = > 60%
• Nc1nc2ccc(C(=O)N(Cc3ccccc3)Cc3ccc(Cl)c(Cl)c3)cc2s1 = inactive
• N#Cc1ccc(CS(=O)(=O)c2ccc3nc(N)sc3c2)cc1 = 55.5%
• CS(=O)(=O)c1ccc2nc(N)sc2c1 = > 60%
• Nc1nc2ccc(C(=O)NCc3ccc(Cl)c(Cl)c3)cc2s1 = > 60%
• CSc1ccc2nc(N)sc2c1 = 26.9%
• COc1ccc2nc(N)sc2c1 = 15.2%
• Nc1nc2ccc(C(=O)NC(c3ccccc3)c3ccccc3)cc2s1 = > 60%
• Nc1nc2ccc(SCc3ccc(C(=O)NCc4ccccc4)cc3)cc2s1 = > 60%
• Nc1nc2ccc(OC(F)(F)F)cc2s1 [RILUZOLE] = > 60%
• COC(=O)C1CCN(C(=O)c2ccc(CSc3ccc4nc(N)sc4c3)cc2)CC1 = > 60%
• COC(=O)C1CCN(C(=O)c2ccc3nc(N)sc3c2)CC1 = 23.3%

====

System: Trypanosoma brucei
Experiment: Inhibition of N-terminal His-tagged Trypanosoma brucei pteridine reductase 1 at 50 uM using di-hydrobiopterine as substrate measured at 1 min interval for 50 mins in presence of NADPH relative to control
Experimental endpoint: inhibition

* Nc1nc2c(O)cc(C(=O)NCc3ccccc3)cc2s1 | 47.8%
* Nc1nc2c(C(=O)NCc3ccc(Cl)c(Cl)c3)cc(O)c(O)c2s1 | > 60%
* Nc1nc2ccc(C(=O)N(Cc3ccccc3)Cc3ccc(Cl)c(Cl)c3)cc2s1 | > 60%
* Nc1nc2ccc(OCc3ccc(Cl)c(Cl)c3)cc2s1 | > 60%
* N#Cc1ccc(CNC(=O)c2ccc3nc(N)sc3c2)cc1 | > 60%
* N#Cc1ccc(COc2ccc3nc(N)sc3c2)cc1 | > 60%
* Nc1nc2ccc(SC(F)(F)F)cc2s1 | > 60%
* Nc1nc2ccc(OCc3ccccc3)cc2s1 | > 60%
* COC(=O)C1CCN(C(=O)c2ccc3nc(N)sc3c2)CC1 | 36.4%
* Nc1nc2ccc(C(=O)NCc3ccc(C(=O)NCc4ccccc4)cc3)cc2s1 | > 60%
* COc1ccc(CN(Cc2ccc(Cl)c(Cl)c2)C(=O)c2ccc3nc(N)sc3c2)cc1OC | > 60%
* N#Cc1ccc(CSc2ccc3nc(N)sc3c2)cc1 | > 60%
